- test details: Food effect on relative bioavailability of 480 mg FDV, two-period crossover (Part 2)
- Type: in vivo, human
- cond: male, human, plasma, oral, 480 mg, FDV 480 mg/fasted; mean (CV%), N = 7; read-out: t½ (converted)
- Experimental: Blood samples were taken pre-dose (0) and at prespecified time points after dosing (Figure 1). At each time point, approximately 4.9 mL of blood was drawn into evacuated collection tubes, containing ethylene diamine tetraacetate (EDTA) anticoagulant and labeled with sample identification information. […]
value kind: half-life

Sample `C=C[C@@H]1C[C@]1(NC(=O)[C@@H]1C[C@@H](Oc2cc(-c3csc(NC(=O)C(C)C)n3)nc3c(Br)c(OC)ccc23)CN1C(=O)[C@@H](NC(=O)OC1CCCC1)C(C)(C)C)C(=O)O` — what was its half-life?
19.6 h

====

- test details: Single ascending dose plasma pharmacokinetics (Part 1)
- Assay type: in vivo, human
- cond: male, human, plasma, po, 120 mg; read-out: Vz/F
value kind: Vd/F (L)
Give bare numbers, in L.

Sample `C=C[C@@H]1C[C@]1(NC(=O)[C@@H]1C[C@@H](Oc2cc(-c3csc(NC(=O)C(C)C)n3)nc3c(Br)c(OC)ccc23)CN1C(=O)[C@@H](NC(=O)OC1CCCC1)C(C)(C)C)C(=O)O` — what was its Vd/F?
435

====

- test details: Single ascending dose plasma pharmacokinetics (Part 1)
- Assay type: in vivo, human
- cond: male, human, plasma, po, 1200 mg; read-out: tmax
value kind: Tmax (h)
Give bare numbers, in h.

Sample `C=C[C@@H]1C[C@]1(NC(=O)[C@@H]1C[C@@H](Oc2cc(-c3csc(NC(=O)C(C)C)n3)nc3c(Br)c(OC)ccc23)CN1C(=O)[C@@H](NC(=O)OC1CCCC1)C(C)(C)C)C(=O)O` — what was its Tmax?
8

====

- test details: Single ascending dose plasma pharmacokinetics (Part 1)
- Assay type: in vivo, human
- cond: male, human, plasma, po, 800 mg; read-out: tmax
value kind: Tmax (h)
Numbers only, in h.

Sample `C=C[C@@H]1C[C@]1(NC(=O)[C@@H]1C[C@@H](Oc2cc(-c3csc(NC(=O)C(C)C)n3)nc3c(Br)c(OC)ccc23)CN1C(=O)[C@@H](NC(=O)OC1CCCC1)C(C)(C)C)C(=O)O` — what was its Tmax?
9

====

- test details: Single ascending dose plasma pharmacokinetics (Part 1)
- Type: in vivo, human
- cond: male, human, plasma, po, 240 mg, FDV 240 mg single oral dose, fasted; gMean (gCV%); read-out: t½ (converted)
value kind: half-life (h)
Give bare numbers, in h.

Sample C=C[C@@H]1C[C@]1(NC(=O)[C@@H]1C[C@@H](Oc2cc(-c3csc(NC(=O)C(C)C)n3)nc3c(Br)c(OC)ccc23)CN1C(=O)[C@@H](NC(=O)OC1CCCC1)C(C)(C)C)C(=O)O [FDV, Faldaprevir] — what was its half-life?
22.2

====

- test details: Single ascending dose plasma pharmacokinetics (Part 1)
- Assay type: in vivo, human
- cond: male, human, plasma, po, 240 mg; read-out: tmax
value kind: Tmax (h)
One number for each entry, in h.

Sample `C=C[C@@H]1C[C@]1(NC(=O)[C@@H]1C[C@@H](Oc2cc(-c3csc(NC(=O)C(C)C)n3)nc3c(Br)c(OC)ccc23)CN1C(=O)[C@@H](NC(=O)OC1CCCC1)C(C)(C)C)C(=O)O` — what was its Tmax?
4
